Papp B→A values for the compounds below.
# assay text: Apparent permeability from basolateral to apical side in MDCK cells
# Format: ADME, cell-based, Canis lupus familiaris
# settings: dog
endpoint label: Papp B→A

1) Cl.Cl.Cl.Cl.c1cc(NCCCCN2CCOCC2)c2ccc3c(ccc4c(NCCN5CCOCC5)ccnc43)c2n1 = 43.2 to 67.3 ×10⁻⁶ cm/s
2) CC(C)NCC(O)COc1cccc2ccccc12 (stereo not drawn) = 41.6 to 42.9 ×10⁻⁶ cm/s
3) COc1cc2nc(N3CCN(C(=O)c4ccco4)CC3)nc(N)c2cc1OC = 48.6 to 58.9 ×10⁻⁶ cm/s

* * *

# assay text: Stability in plasma (unknown origin) after 1 hr at 37 degC
# Type: ADME, cell-free
# settings: read-out: Stability
endpoint label: remaining at 1 h

1. CCN(CC)CCCNc1ccnc2c(NCCCN(CC)CC)ccnc12 = > 85%
2. Cl.Cl.Cl.Cl.c1cc(NCCCCN2CCOCC2)c2ccc3c(ccc4c(NCCN5CCOCC5)ccnc43)c2n1 = 60%
3. CCN(CC)CCCC(C)Nc1ccnc2c(NC(C)CCCN(CC)CC)ccnc12 (stereo not drawn) = > 85%
